Cited source: patent US20050101595A1

Target: CDK2/Cyclin A (Homo sapiens, UniProt P24941)
Experiment: Inhibition of CDK2/Cyclin A Retinoblastoma Kinase Activity
Settings: apparent Ki, CDK2/proteolyzed cyclin A, Rb fragment substrate, 25 μM ATP
Protocol: Cyclin-dependent kinase activity was measured by quantifying the enzyme-catalyzed, time-dependent incorporation of radioactive phosphate from [^32P]ATP or [^33P]ATP into a protein substrate. […] The phosphorylated substrate was then captured on a nitrocellulose or phosphocellulose membrane using a 96-well filtration manifold, and unincorporated radioactivity was removed by repeated washing with 0.85% phosphoric acid. Radioactivity was quantified by exposing the dried membranes to a phosphorimager. […]
Structures can show the parent of a compound that is named as a salt.
MEASURED PROPERTY: Ki (nM)
Give a bare numeral; the unit nM is implied.

The examples below pair each entry with its known result.
> print(dat)
                                   compound  measured.property  measurement
1  CN(C)CCSc1ccc(S(=O)(=O)N2CCC(Nc3nc(N)c(C(=O)c4c(F)cccc4F)s3)CC2)cn1 [Example L1, Dihydrochloride]                 Ki         0.62
2  N#C/C(=C\c1cccc(O)c1)C(=O)N1CCC(Nc2nc(N)c(C(=O)c3c(F)cccc3F)s2)CC1 [Example D13, Trifluoroacetic Acid Salt]                 Ki           24
3  Nc1nc(NC2CCN(S(=O)(=O)CCCc3nnn[nH]3)CC2)sc1C(=O)c1c(F)cccc1F                 Ki          3.1
4  Nc1nc(NC2CCN(S(=O)(=O)c3ccc(-n4ccnc4)nc3)CC2)sc1C(=O)c1c(F)cccc1F [Example G25, Trifluoroacetic Acid Salt]                 Ki         0.27
5  Nc1nc(NC2CCN(C(=O)c3ccncc3)CC2)sc1C(=O)c1c(F)cccc1F                 Ki           53

Exercise: Quick check: Ki of Nc1nc(NC2CCN(Cc3ccccc3)CC2)sc1C(=O)c1c(F)cccc1F ?
Solution: 490

Exercise: Try this compound too: Cc1cncn1-c1ccc(S(=O)(=O)N2CCC(Nc3nc(N)c(C(=O)c4c(F)cccc4F)s3)CC2)cn1 [Example G28, Hydrochloride]
Solution: 0.4

Exercise: Try this compound too: CN1CCC[C@H](Oc2ccc(S(=O)(=O)N3CCC(Nc4nc(N)c(C(=O)c5c(F)cccc5F)s4)CC3)cn2)C1 [Example H29, Hydrochloride]
Solution: 0.52

---

tested on: HCT-116 cell line; experiment: Inhibition of cell growth, tetrazolium salt (MTT) assay; assay type: cell-based; details: 0.25 μM compound; HCT-116; Table 3
Listed below: HCT-116 % Inhibition at 0.25 μM values for each entry.
Give a bare numeral; the unit % is implied.

> print(dat)
                               query.smiles  result.unit  measurement
1  Nc1nc(NC2CCN(S(=O)(=O)c3c(Cl)nc4sccn34)CC2)sc1C(=O)c1c(F)cccc1F            %           18
2  CCc1ccc(S(=O)(=O)N2CCC(Nc3nc(N)c(C(=O)c4c(F)cccc4F)s3)CC2)cc1            %           17
3  Nc1nc(NC2CCN(S(=O)(=O)c3ccc(-c4ccccn4)s3)CC2)sc1C(=O)c1c(F)cccc1F            %           27
4  COC(=O)c1csc(S(=O)(=O)N2CCC(Nc3nc(N)c(C(=O)c4c(F)cccc4F)s3)CC2)c1OC            %           27
5  CC(=O)Nc1nc(C)c(S(=O)(=O)N2CCC(Nc3nc(N)c(C(=O)c4c(F)cccc4F)s3)CC2)s1            %           24

Exercise: Quick check: HCT-116 % Inhibition at 0.25 μM of COc1ccc(Cl)cc1S(=O)(=O)N1CCC(Nc2nc(N)c(C(=O)c3c(F)cccc3F)s2)CC1 ?
Solution: 34

---

Tested on: HCT-116 cell line
Assay: Inhibition of cell growth, tetrazolium salt (MTT) assay
Type: cell-based
Settings: 0.1 μM compound; HCT-116; Table 3
Procedure: Inhibition of Cell Growth: Assessment of Cytotoxicity: Inhibition of cell growth was measured using the tetrazolium salt assay, which is based on the ability of viable cells to reduce 3-(4,5-dimethylthiazol-2-yl)-2,5-[2H]-diphenyltetrazolium bromide (MTT) to formazan (Mossman, Journal of Immunological Methods, vol. 65 (1983), pp. 55-58). The water-insoluble purple formazan product was then detected spectrophotometrically. […]
Label key: condition met means HCT-116 % Inhibition at 0.1 μM under 20%; condition not met means HCT-116 % Inhibition at 0.1 μM of 20% or more.

Consider the following illustrative entries.
> print(dat)
                                   compound  assigned.class
1  Cc1cccc(S(=O)(=O)N2CCC(Nc3nc(N)c(C(=O)c4c(F)cccc4F)s3)CC2)c1   condition met
2  Nc1nc(NC2CCN(S(=O)(=O)c3cccc(Br)c3)CC2)sc1C(=O)c1c(F)cccc1F   condition met
3  Nc1nc(NC2CCN(S(=O)(=O)c3ccc(C(F)(F)F)cc3)CC2)sc1C(=O)c1c(F)cccc1F   condition met
4  CN(C)c1cccc2c(S(=O)(=O)N3CCC(Nc4nc(N)c(C(=O)c5c(F)cccc5F)s4)CC3)cccc12 [Example P2]   condition met

Exercise: Would you kindly verify if HCT-116 % Inhibition at 0.1 μM of CC(C)(C)c1ccc(S(=O)(=O)N2CCC(Nc3nc(N)c(C(=O)c4c(F)cccc4F)s3)CC2)cc1 is strictly less than 20%?
Solution: condition not met

Exercise: Try this compound too: Nc1nc(NC2CCN(S(=O)(=O)c3ccc(CBr)cc3)CC2)sc1C(=O)c1c(F)cccc1F
Solution: condition met

Exercise: Try this compound too: CS(=O)(=O)c1ccccc1S(=O)(=O)N1CCC(Nc2nc(N)c(C(=O)c3c(F)cccc3F)s2)CC1
Solution: condition met

Exercise: Try this compound too: COC(=O)c1csc(S(=O)(=O)N2CCC(Nc3nc(N)c(C(=O)c4c(F)cccc4F)s3)CC2)c1OC
Solution: condition met

Exercise: Try this compound too: Nc1nc(NC2CCN(S(=O)(=O)c3ccc(Oc4ccncc4)cc3)CC2)sc1C(=O)c1c(F)cccc1F
Solution: condition met

Exercise: Try this compound too: Nc1nc(NC2CCN(S(=O)(=O)c3cccs3)CC2)sc1C(=O)c1c(F)cccc1F
Solution: condition not met

Exercise: Try this compound too: Nc1nc(NC2CCN(S(=O)(=O)c3ccc(Br)cc3)CC2)sc1C(=O)c1c(F)cccc1F
Solution: condition not met

Exercise: Try this compound too: CS(=O)(=O)CS(=O)(=O)N1CCC(Nc2nc(N)c(C(=O)c3c(F)cccc3F)s2)CC1
Solution: condition not met

Exercise: Try this compound too: Nc1nc(NC2CCN(S(=O)(=O)c3ccc(CNC(=O)c4ccccc4)s3)CC2)sc1C(=O)c1c(F)cccc1F
Solution: condition met

---

Listed below: pKi values for each entry.
target: CDK2/Cyclin A (Homo sapiens, UniProt P24941); test: Inhibition of CDK2/Cyclin A Retinoblastoma Kinase Activity; settings: apparent Ki, CDK2/proteolyzed cyclin A, Rb fragment substrate, 25 μM ATP
Structures can show the parent of a compound that is named as a salt.
For clarity, pKi is expressed as the negative log10 of concentration in mol/L.

The examples below pair each entry with its known result.
> print(dat)
                                   compound  measurement
1  C[C@@H]1CN(CCCS(=O)(=O)N2CCC(Nc3nc(N)c(C(=O)c4c(F)cccc4F)s3)CC2)C[C@H](C)N1 [Example K1]         8.11
2  N#CCCCS(=O)(=O)N1CCC(Nc2nc(N)c(C(=O)c3c(F)cccc3F)s2)CC1 [Example K17]         8.60
3  Nc1nc(NC2CCN(S(=O)(=O)c3ccc(CCCN4CCCC4)nc3)CC2)sc1C(=O)c1c(F)cccc1F [Example I13, Trifluoroacetic Acid Salt]         8.89
4  CN(C)CCOc1ccc(S(=O)(=O)N2CCC(Nc3nc(N)c(C(=O)c4c(Cl)cccc4Cl)s3)CC2)cn1 [Example H17, Hydrochloride Salt]         8.74
5  Nc1nc(NC2CCN(S(=O)(=O)c3ccc(C(=O)O)cc3)CC2)sc1C(=O)c1c(F)cccc1F [Example F14]         8.70
6  Cc1nccn1-c1ccc(S(=O)(=O)N2CCC(Nc3nc(N)c(C(=O)c4c(F)cccc4F)s3)CC2)cn1 [Example G26]         9.19

Exercise: Quick check: pKi of N#Cc1ccc(S(=O)(=O)N2CCCC(Nc3nc(N)c(C(=O)c4c(F)cccc4F)s3)C2)cc1 (stereo not shown) [Example F35] ?
Solution: 7.12

Exercise: Try this compound too: Cc1ccc(S(=O)(=O)N2CCC(Nc3nc(N)c(C(=O)c4c(F)cccc4F)s3)CC2)cc1 [Example F15]
Solution: 8.55

Exercise: Try this compound too: CCN1CCN(CCCS(=O)(=O)N2CCC(Nc3nc(N)c(C(=O)c4c(F)cccc4F)s3)CC2)CC1 [Example K15]
Solution: 8.06

Exercise: Try this compound too: CN(CCCS(=O)(=O)N1CCC(Nc2nc(N)c(C(=O)c3c(F)cccc3F)s2)CC1)C1CCCCC1 [Example K61, Acetic Acid Salt]
Solution: 8.10

Exercise: Try this compound too: CN(C)CCc1ncc(S(=O)(=O)N2CCC(Nc3nc(N)c(C(=O)c4c(F)cccc4F)s3)CC2)cn1 [Example N12, Hydrochloride Salt]
Solution: 8.77

Exercise: Try this compound too: N#Cc1ccc(S(=O)(=O)N2CCC(Nc3nc(N)c(C(=O)c4c(F)cccc4F)s3)C2)cc1 (stereo not shown) [Example F38]
Solution: 7.00

Exercise: Try this compound too: Nc1nc(NC2CCN(S(=O)(=O)c3ccc(CCNc4ccccc4O)nc3)CC2)sc1C(=O)c1c(F)cccc1F [Example N1, Trifluoroacetic Acid Salt]
Solution: 9.55
